# target-of-assay: PGGT I (Bos taurus, UniProt P29702+Q5EAD5)
# Construct: PGGT purified from bovine brain was a gift of Drs; M. Gelb and K. Yokoyama; tissue gift of Drs; M. Gelb and K. Yokoyama (Univ. of Washington)
# test-name: PGGT assay using GST-CIIL protein and [3H]GGpp
# settings: GST-CIIL, [3H]GGpp, Tris-HCl pH 7.4; read-out: IC50 for PGGT I inhibition
readout-type: IC50 (µM)

INSERT INTO results (compound, readout_type, unit_of_measurement, experimental_result) VALUES
  ('CCCC[C@@H](C)/C=C(C)/C=C(\C)C(=O)NC1=C[C@@](O)(/C=C/C=C/C=C/C(=O)NC2=C(O)CCC2=O)[C@@H]2O[C@@H]2C1=O [UCF1-C]', 'IC50', 'µM', 180);

###

# target-of-assay: yeast PFT (Saccharomyces cerevisiae, UniProt P22007+P29703)
# Construct: FTase was purified from SP1 cells carrying plasmids pBH28 and YEpDPR1 as described herein
# Sequence (P22007 1-431): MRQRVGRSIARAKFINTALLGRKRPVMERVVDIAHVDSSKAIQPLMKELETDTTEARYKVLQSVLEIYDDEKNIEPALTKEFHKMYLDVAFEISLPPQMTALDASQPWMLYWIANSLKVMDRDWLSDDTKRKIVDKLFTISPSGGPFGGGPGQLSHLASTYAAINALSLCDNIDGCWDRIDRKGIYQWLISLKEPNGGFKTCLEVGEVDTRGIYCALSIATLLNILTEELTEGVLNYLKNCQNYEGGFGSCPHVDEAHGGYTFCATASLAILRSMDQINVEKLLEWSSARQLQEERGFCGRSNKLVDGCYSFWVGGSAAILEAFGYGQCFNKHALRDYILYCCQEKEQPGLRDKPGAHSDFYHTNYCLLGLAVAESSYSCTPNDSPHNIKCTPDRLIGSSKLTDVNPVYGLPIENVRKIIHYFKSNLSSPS
# Sequence (P29703 1-316): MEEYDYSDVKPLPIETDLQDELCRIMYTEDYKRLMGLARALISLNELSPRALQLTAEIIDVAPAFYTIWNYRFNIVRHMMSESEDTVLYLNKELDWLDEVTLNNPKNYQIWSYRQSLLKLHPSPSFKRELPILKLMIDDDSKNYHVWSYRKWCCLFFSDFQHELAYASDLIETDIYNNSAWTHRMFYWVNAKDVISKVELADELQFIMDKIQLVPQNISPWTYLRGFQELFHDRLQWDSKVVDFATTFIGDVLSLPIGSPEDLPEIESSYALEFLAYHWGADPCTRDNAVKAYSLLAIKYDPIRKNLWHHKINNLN
# test-name: Farnesyltransferase assay using RAS2CT1 protein and [3H]Fpp, without dithiothreitol
# settings: secondary plot of slopes against UCF1-C concentration, Fpp varied, constant ras
pKi: −log10 of the molar value.
readout-type: pKi

INSERT INTO assay_data (chemical_string, target_of_assay, experimental_result) VALUES
  ('CCCC[C@@H](C)/C=C(C)/C=C(\C)C(=O)NC1=C[C@@](O)(/C=C/C=C/C=C/C(=O)NC2=C(O)CCC2=O)[C@@H]2O[C@@H]2C1=O', 'yeast PFT (Saccharomyces cerevisiae, UniProt P22007+P29703)', 5.92);
